Just for reference, patent US20260008775A1 is where these values come from.

- systemTested: human emopamil binding protein and human 7-dehydrocholesterol reductase (hEBP-DHCR7) (Homo sapiens (Human), UniProt Q15125)
- Sequence (Q15125 whole entry): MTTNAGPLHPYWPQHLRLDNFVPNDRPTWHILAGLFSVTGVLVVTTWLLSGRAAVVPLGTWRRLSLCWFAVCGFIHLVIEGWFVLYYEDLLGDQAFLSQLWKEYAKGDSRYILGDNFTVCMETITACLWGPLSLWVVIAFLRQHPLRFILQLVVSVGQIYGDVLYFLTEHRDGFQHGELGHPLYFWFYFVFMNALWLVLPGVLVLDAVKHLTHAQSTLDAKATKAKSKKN
endpointLabel: Ki

> print(dat)
                                   compound  endpointlabel   result
1  CC(C)n1nc(-c2cncc(Cl)c2)nc1[C@H]1CC[C@@H](N2CCOC[C@@H]2C)C1             Ki  30.8 nM
2  FC(F)(F)c1cccc(-c2nc([C@@H]3CC[C@H](N4CCCOCC4)C3)n(C3CC3)n2)n1 (single isomer, unassigned)             Ki   120 nM
3  CC[C@H]1CN([C@@H]2CC[C@H](c3nc(-c4cnc(C(F)(F)F)c(F)c4)nn3C(C)C)C2)CCO1             Ki  1740 nM
4  CC(C)n1nc(-c2cncc(Cl)c2)cc1[C@H]1[C@@H]2C[C@H](N3CCCOCC3)C[C@@H]21             Ki  35.8 nM
